Tested on: CYP3A
PROTOCOL NOTES: in vitro
PROTOCOL CONDITIONS: human, microsomes, % inhibition, CYP3A inhibition (HLM, midazolam substrate)
RECORDED METRIC: inhibition at 10 µM (%)
Provide only the numeric value, understood in %.

Form field: reported inhibition at 10 µM of C[C@H]1COc2c(N3CC[C@@H](Nc4ncccn4)C3)c(F)cc3c(=O)c(C(=O)O)cn1c23
25.2

---

Kindly state MIC, EMRSA15 for each of the entries shown.
Test system: EMRSA15
PROTOCOL NOTES: MIC, microdilution broth method
Format: cell-based, Staphylococcus aureus
PROTOCOL CONDITIONS: ESKAPE panel, Gram-positive; in µg/mL
No unit in the answer, please; the number alone is enough.

Give EMRSA15 MIC, EMRSA15 for C[C@H]1COc2c(N3CC[C@@H](N(C)C4CC4)C3)c(F)cc3c(=O)c(C(=O)O)cn1c23
32

Return MIC, EMRSA15 measured with EMRSA15 given this molecule: C[C@H]1COc2c(N3CC[C@H](Nc4cc(NC5CC5)ncn4)C3)c(F)cc3c(=O)c(C(=O)O)cn1c23
32

Fill in the recorded MIC, EMRSA15 for this molecule, with EMRSA15 as test system: C[C@H]1COc2c(N3CC[C@@H](N)C3)c(F)cc3c(=O)c(C(=O)O)cn1c23
32

Recall the recorded MIC, EMRSA15 for C[C@H]1COc2c(N3CCC(Nc4ncccn4)C3)c(F)cc3c(=O)c(C(=O)O)cn1c23 (stereo partly shown) with EMRSA15 and state it.
4

---

System: VRE12201
PROTOCOL NOTES: MIC, microdilution broth method
Assay type: cell-based, Enterococcus faecalis
PROTOCOL CONDITIONS: VRE12201; in µg/mL
RECORDED METRIC: MIC
Reply: number alone, nothing else.

Entry O=C(O)c1cn(C2CC2)c2cc(N3CCN(Cc4cccc5cccnc45)CC3)c(F)cc2c1=O , system VRE12201: what MIC was measured?
2

Find MIC (VRE12201) for the entry Cc1nc(-c2ccc(CN3CCN(c4cc5c(cc4F)c(=O)c(C(=O)O)cn5C4CC4)CC3)cc2)no1
1

Enter reported MIC observed with VRE12201 for CCn1cc(C(=O)O)c(=O)c2cc(F)c(N3CCN(Cc4cccc5cccnc45)CC3)cc21
8

---

So I've got a bunch of molecules here, and I need their MIC values.
Tested on: EMRSA15
PROTOCOL NOTES: MIC, microdilution broth method
Assay type: cell-based, Staphylococcus aureus
PROTOCOL CONDITIONS: Staphylococcus aureus, Staphylococcus aureus (EMRSA15), Gram-Positive (Table 14); read-out: MIC
Kindly answer with a numeric value in µg/mL, unit omitted.

Form field: reported MIC of C[C@H]1COc2c(N3CC[C@@H](Nc4ncc(F)cn4)C3)c(F)cc3c(=O)c(C(=O)O)cn1c23
0.5

Given the molecule C[C@H]1COc2c(N3CC[C@@H](Nc4cnccn4)C3)c(F)cc3c(=O)c(C(=O)O)cn1c23 , what is its reported MIC?
1

Recorded MIC of C[C@H]1COc2c(N3CC[C@@H](Nc4ncccn4)C3)c(F)cc3c(=O)c(C(=O)O)cn1c23 , please.
0.5

Suppose we examine the molecule Cc1cc(N2CCN(c3c(F)cc4c(=O)c(C(=O)O)cn5c4c3OC[C@@H]5C)CC2)nc(C(C)C)n1 ; what MIC value has been reported?
16

Can you share its MIC? I mean this molecule: C[C@H]1COc2c(N3CCN(c4ncc(F)cn4)CC3)c(F)cc3c(=O)c(C(=O)O)cn1c23
2

---

PROTOCOL NOTES: Single dose pharmacokinetics study, intravenous route
PROTOCOL CONDITIONS: male, CD-1 (ICR), mouse, in vivo, 5 mg/kg
RECORDED METRIC: MRT (h)
Supply the numeric figure in h, leaving out any unit text.

Given the molecule C[C@H]1COc2c(N3CC[C@@H](Nc4ncccn4)C3)c(F)cc3c(=O)c(C(=O)O)cn1c23 , what is its reported MRT?
1.8

---

Give MIC for every item shown.
Tested on: M6
PROTOCOL NOTES: MIC, microdilution broth method
Assay type: cell-based
PROTOCOL CONDITIONS: Klebsiella pneumoniae (M6), Gram-Negative; read-out: MIC
Write the number in µg/mL without appending the unit.

Would you kindly share the measured MIC for C[C@H]1COc2c(N3CC[C@@H](Nc4ncccn4)C3)c(F)cc3c(=O)c(C(=O)O)cn1c23 ?
1

What MIC value was documented for this molecule, C[C@H]1COc2c(N3CCN(c4ncc(F)cn4)CC3)c(F)cc3c(=O)c(C(=O)O)cn1c23 ?
4

So what does the record say about MIC for C[C@H]1COc2c(N3CC[C@@H](Nc4ncc(F)cn4)C3)c(F)cc3c(=O)c(C(=O)O)cn1c23 ?
2

---

Tested on: CYP1A (printed CYPiA)
PROTOCOL NOTES: in vitro
PROTOCOL CONDITIONS: human, microsomes, % inhibition, CYPiA inhibition (HLM, phenacetin substrate)
RECORDED METRIC: inhibition at 10 µM (%)
Number in %, nothing else.

Look up inhibition at 10 µM for this compound: C[C@H]1COc2c(N3CC[C@@H](Nc4ncccn4)C3)c(F)cc3c(=O)c(C(=O)O)cn1c23
9.56

---

Test system: VRE12201
PROTOCOL NOTES: MIC, microdilution broth method
Type: cell-based, Enterococcus faecalis
PROTOCOL CONDITIONS: ESKAPE panel, Gram-positive; in µg/mL
RECORDED METRIC: MIC, VRE12201
Could you respond with only the numeric value?

Request the reported MIC, VRE12201 associated with C[C@H]1COc2c(N3CC[C@H](Nc4ncccn4)C3)c(F)cc3c(=O)c(C(=O)O)cn1c23
1

If you can, please state the reported MIC, VRE12201 value of C[C@H]1COc2c(N3CC[C@@H](Nc4ncccn4)C3)c(F)cc3c(=O)c(C(=O)O)cn1c23 .
0.06

Find the recorded MIC, VRE12201 belonging to C[C@H]1COc2c(N3CCC(Nc4ncccn4)C3)c(F)cc3c(=O)c(C(=O)O)cn1c23 (some centres unmarked) and report it.
0.5

---

TESTED ON: CYP2B6 (Homo sapiens, UniProt P20813)
Sequence (P20813 whole entry): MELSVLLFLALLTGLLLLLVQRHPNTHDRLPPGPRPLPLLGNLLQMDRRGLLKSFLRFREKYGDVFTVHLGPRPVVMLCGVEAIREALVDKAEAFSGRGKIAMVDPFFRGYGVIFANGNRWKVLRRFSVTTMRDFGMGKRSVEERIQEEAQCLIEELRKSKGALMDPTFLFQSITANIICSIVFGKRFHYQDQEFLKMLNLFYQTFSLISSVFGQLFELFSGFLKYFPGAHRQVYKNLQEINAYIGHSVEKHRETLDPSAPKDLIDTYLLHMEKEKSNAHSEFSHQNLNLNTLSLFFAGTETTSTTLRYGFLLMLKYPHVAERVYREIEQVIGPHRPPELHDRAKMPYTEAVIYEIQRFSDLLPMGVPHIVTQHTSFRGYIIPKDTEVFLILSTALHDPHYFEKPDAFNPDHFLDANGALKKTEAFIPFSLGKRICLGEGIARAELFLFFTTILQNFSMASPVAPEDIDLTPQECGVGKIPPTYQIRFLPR
PROTOCOL NOTES: in vitro
PROTOCOL CONDITIONS: microsomes, % inhibition, CYP2B6 inhibition (HLM, bupropion substrate)
RECORDED METRIC: inhibition at 10 µM (%)
Express it in %; write the number only.

# get_value(readout='inhibition at 10 µM', item= C[C@H]1COc2c(N3CC[C@@H](Nc4ncccn4)C3)c(F)cc3c(=O)c(C(=O)O)cn1c23 )
-1.32

---

Test system: VRE12201
PROTOCOL NOTES: MIC, microdilution broth method
Format: cell-based, Enterococcus faecalis
PROTOCOL CONDITIONS: VRE12201; in µg/mL
Consider the following compounds; for each one, report its MIC.
Enter the number alone.

// lookup MIC | system=VRE12201 | key= Cc1cc(C)cc(CN2CCN(c3cc4c(cc3F)c(=O)c(C(=O)O)cn4C3CC3)CC2)c1
1

# value lookup — system VRE12201, readout MIC, item CCn1cc(C(=O)O)c(=O)c2cc(F)c(N3CCN(Cc4ccc(-c5ccccc5)cc4)CC3)cc21
4

Provide value of MIC for this record tested with VRE12201: O=C(O)c1cn(C2CC2)c2cc(N3CCN(Cc4ccc(F)c5ccccc45)CC3)c(F)cc2c1=O
8

---

For each record, write down the corresponding MIC.
Test system: VSE775
PROTOCOL NOTES: MIC, microdilution broth method
Type: cell-based, Enterococcus faecalis
PROTOCOL CONDITIONS: VSE775; in µg/mL
I only need the number, thanks.

Given the molecule O=C(O)c1cn(C2CC2)c2cc(N3CCN(Cc4ccc(-n5cncn5)cc4)CC3)c(F)cc2c1=O [Compound 2.36] , what is its reported MIC?
1

Would you mind telling me what MIC value was observed for CCn1cc(C(=O)O)c(=O)c2cc(F)c(N3CCN(Cc4ccc(-c5csnn5)cc4)CC3)cc21 [ML-77-161] ?
8

Entry CCn1cc(C(=O)O)c(=O)c2cc(F)c(N3CCNCC3)nc21 [Enoxacin, enoxacin, reference compound] has what MIC?
16

Give the measured MIC of O=C(O)c1cn(C2CC2)c2cc(N3CCN(c4cccc5ccccc45)CC3)c(F)cc2c1=O [ML-77-168] .
2

---

Test system: VRE12201
PROTOCOL NOTES: MIC, microdilution broth method
Type: cell-based, Enterococcus faecalis
PROTOCOL CONDITIONS: VRE12201; in µg/mL
RECORDED METRIC: MIC

MIC for CCn1cc(C(=O)O)c(=O)c2cc(F)c(N3CCN(Cc4ccc(-n5cccn5)cc4)CC3)cc21 ?
4-8

Any idea what its MIC is? The compound is CCn1cc(C(=O)O)c(=O)c2cc(F)c(N3CCN(Cc4ccc(-n5cccc5)cc4)CC3)cc21
4-8

MIC lookup needed for O=C(O)c1cn(C2CC2)c2cc(N3CCN(Cc4cc(=O)[nH]c5ccccc45)CC3)c(F)cc2c1=O , thanks.
0.5-4
